B1: POU domain, class 3, transcription factor 3, residues 320 to 388; numbered along this chain, P20264 (parent)
chain: DDLEQFAKQFKQRRIKLGFTQADVGLALGTLYGNVFSQTTICRFEALQLSFKNMCKLKPLLNKWLEEAD

# Variants of: B1
# Measurement Notes: abundance fitness (aPCA) (normalised: wild type 0, dead -1); higher = more abundant; growth selection in yeast, the domain comes from the species named
# Applied Conditions: Homo sapiens

Input Sequence: DDLEQFAKQFKQRRIKLGFTQADVGLALGTHYGNVFSQTTICRFEALQLSFKNMCKLKPLLNKWLEEAD [L31H]
abundance fitness: -0.229
--
Input Sequence: DDLEQFAKQFKQRRIKLGFTQADIGLALGTLYGNVFSQTTICRFEALQLSFKNMCKLKPLLNKWLEEAD [V24I]
abundance fitness: -0.766
--
Input Sequence: DDLEQFAKQFKQRRIKLGFTQADVGLALGTLVGNVFSQTTICRFEALQLSFKNMCKLKPLLNKWLEEAD [Y32V]
abundance fitness: -0.557
